# measured_target: LIMK1 (human) (UniProt P53667)
# Sequence (P53667 whole entry, looked up): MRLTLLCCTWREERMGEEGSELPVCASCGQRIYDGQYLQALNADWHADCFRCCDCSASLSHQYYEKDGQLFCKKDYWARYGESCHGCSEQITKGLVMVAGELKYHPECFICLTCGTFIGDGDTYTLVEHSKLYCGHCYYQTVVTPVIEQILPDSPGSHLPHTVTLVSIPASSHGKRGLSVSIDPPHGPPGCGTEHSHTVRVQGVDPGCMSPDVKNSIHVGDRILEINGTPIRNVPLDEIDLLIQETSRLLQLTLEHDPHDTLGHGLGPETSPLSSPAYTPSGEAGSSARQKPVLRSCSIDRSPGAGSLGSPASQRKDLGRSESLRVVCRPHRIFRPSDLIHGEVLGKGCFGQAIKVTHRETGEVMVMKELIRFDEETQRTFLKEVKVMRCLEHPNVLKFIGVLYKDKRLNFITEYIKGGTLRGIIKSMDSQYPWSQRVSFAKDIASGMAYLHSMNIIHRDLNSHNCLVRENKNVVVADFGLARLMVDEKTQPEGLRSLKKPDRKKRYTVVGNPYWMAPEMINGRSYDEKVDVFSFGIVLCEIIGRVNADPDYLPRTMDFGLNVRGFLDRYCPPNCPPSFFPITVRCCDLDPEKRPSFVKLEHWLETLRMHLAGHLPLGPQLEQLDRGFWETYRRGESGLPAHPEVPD
# protocol_text: radiometric filter-binding kinase assay, Kinase HotSpot
# test_context: compound 0.5 µM; ATP 10 µM
readout_label: residual activity (%)

compound: Cc1ccc(NC(=O)c2ccc(CN3CCN(C)CC3)cc2)cc1Nc1nc(-c2cccnc2)cs1
unit_symbol: %
number: 98.1
//
compound: CS(=O)c1ccc(-c2nc(-c3ccc(F)cc3)c(-c3ccncc3)[nH]2)cc1 (centres undefined)
unit_symbol: %
number: 91.3
//
compound: Oc1ccc(-c2nc(-c3ccc(F)cc3)c(-c3ccncc3)[nH]2)cc1
unit_symbol: %
number: 91.4
//
compound: CC(C)[C@H](CO)Nc1nc(Nc2cccc(Cl)c2)c2ncn(C(C)C)c2n1
unit_symbol: %
number: 86.3

###

# measured_target: GRK6 (human) (UniProt P43250)
# Sequence (P43250 whole entry, looked up): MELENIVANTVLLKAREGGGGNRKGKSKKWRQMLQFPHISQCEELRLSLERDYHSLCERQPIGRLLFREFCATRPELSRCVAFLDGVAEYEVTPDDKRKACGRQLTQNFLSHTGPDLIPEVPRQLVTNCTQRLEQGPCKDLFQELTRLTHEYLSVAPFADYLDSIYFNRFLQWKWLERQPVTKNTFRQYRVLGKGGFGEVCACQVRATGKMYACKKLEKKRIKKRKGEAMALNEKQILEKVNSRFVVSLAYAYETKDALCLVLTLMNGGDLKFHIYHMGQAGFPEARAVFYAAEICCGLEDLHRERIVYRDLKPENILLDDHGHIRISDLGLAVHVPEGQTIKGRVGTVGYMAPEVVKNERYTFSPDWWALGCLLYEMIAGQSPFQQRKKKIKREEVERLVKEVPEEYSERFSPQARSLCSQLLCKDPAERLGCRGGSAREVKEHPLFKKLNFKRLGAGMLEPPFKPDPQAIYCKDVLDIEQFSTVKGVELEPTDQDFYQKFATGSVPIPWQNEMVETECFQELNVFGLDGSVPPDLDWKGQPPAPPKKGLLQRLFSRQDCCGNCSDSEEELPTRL
# protocol_text: radiometric filter-binding kinase assay, Kinase HotSpot
# test_context: compound 0.5 µM; ATP 10 µM

molecule: Clc1ccc(Nc2nnc(Cc3ccncc3)c3ccccc23)cc1
residual activity, %: 99.9
--
molecule: CC(C)(C)c1nc2c3ccc(F)cc3c3c(=O)[nH]ccc3c2[nH]1
residual activity, %: 48.2
--
molecule: O=c1cc(-c2cccc3c2Sc2ccccc2S3)oc(N2CCOCC2)c1
residual activity, %: 83
--
molecule: O=C1Nc2cc(Br)ccc2/C1=C1/Nc2ccccc2/C1=N\O
residual activity, %: 79.9
--
molecule: O=c1cc(N2CCNCC2)oc2c(-c3ccccc3)cccc12
residual activity, %: 89.6
--
molecule: C#Cc1cccc(Nc2ncnc3cc(OCCOC)c(OCCOC)cc23)c1
residual activity, %: 99.2
--
molecule: Nc1nc(Nc2ccc(S(N)(=O)=O)cc2)nn1C(=O)c1c(F)cccc1F
residual activity, %: 77.2
--
molecule: O=C(Nc1ccc(Cl)cc1)c1ccccc1NCc1ccncc1
residual activity, %: 101
--
molecule: CSc1nc(-c2ccc(F)cc2)c(-c2ccnc(NC(C)c3ccccc3)c2)[nH]1 (stereo unspecified)
residual activity, %: 79.8
--
molecule: O=C1Nc2ccccc2/C1=C\c1c(Cl)[nH]c2ccccc12
residual activity, %: 107
--
molecule: CCCNC(=O)Nc1ccc(Oc2ncnc3cc(OC)c(OC)cc23)cc1Cl
residual activity, %: 95
--
molecule: CC(C)n1cnc2c(Nc3cccc(Cl)c3)nc(NCCO)nc21
residual activity, %: 88.8
--
molecule: Oc1ccc(-c2nc(-c3ccc(F)cc3)c(-c3ccncc3)[nH]2)cc1
residual activity, %: 99.7
--
molecule: Cc1ccc(NC(=O)c2ccc(CN3CCN(C)CC3)cc2)cc1Nc1nc(-c2cccnc2)cs1
residual activity, %: 104
--
molecule: Cc1cc2ncc(-c3ccccc3)nc2cc1C
residual activity, %: 103
--
molecule: NC(=O)c1ccc(N(C(N)=O)c2c(F)cccc2F)nc1-c1ccc(F)cc1F
residual activity, %: 97.1

###

# measured_target: SIK2 (human)
# protocol_text: radiometric filter-binding kinase assay, Kinase HotSpot
# test_context: compound 0.5 µM; ATP 10 µM
In plain terms, low residual activity, meaning strictly below 90%, gives fulfilled, and everything else gives not fulfilled.

compound: CC(C)(C)c1nc2c3ccc(F)cc3c3c(=O)[nH]ccc3c2[nH]1
discrete_label: fulfilled

compound: CSc1nc(-c2ccc(F)cc2)c(-c2ccnc(NC(C)c3ccccc3)c2)[nH]1 (stereo not given)
discrete_label: not fulfilled

compound: O=C1Nc2ccccc2/C1=C\c1c(Cl)[nH]c2ccccc12
discrete_label: not fulfilled

compound: COc1cc2ncnc(Nc3ccc(F)c(Cl)c3)c2cc1OCCCN1CCOCC1
discrete_label: fulfilled

compound: Nc1nc(Nc2ccc(S(N)(=O)=O)cc2)nn1C(=O)c1c(F)cccc1F
discrete_label: fulfilled

compound: CCN1/C(=C/C(C)=O)Sc2ccc(OC)cc21
discrete_label: not fulfilled

compound: CCCNC(=O)Nc1ccc(Oc2ncnc3cc(OC)c(OC)cc23)cc1Cl
discrete_label: not fulfilled

compound: Clc1ccc(Nc2nnc(Cc3ccncc3)c3ccccc23)cc1
discrete_label: not fulfilled

compound: O=C(NC(NC(=S)Nc1ccc(F)c([N+](=O)[O-])c1)C(Cl)(Cl)Cl)C(c1ccccc1)c1ccccc1 (stereo not given)
discrete_label: not fulfilled

compound: CC(C)n1cnc2c(Nc3cccc(Cl)c3)nc(NCCO)nc21
discrete_label: not fulfilled

compound: O=C(Nc1ccc(Cl)cc1)c1ccccc1NCc1ccncc1
discrete_label: not fulfilled

compound: COc1ccc(-c2cnc3c(-c4ccsc4)cnn3c2)cc1
discrete_label: fulfilled

compound: O=c1cc(-c2cccc3c2Sc2ccccc2S3)oc(N2CCOCC2)c1
discrete_label: not fulfilled

compound: Nc1n[nH]c2nnc(-c3c(-c4ccccc4)nn4ccccc34)cc12
discrete_label: not fulfilled

compound: O=C1Nc2cc(Br)ccc2/C1=C1/Nc2ccccc2/C1=N\O
discrete_label: fulfilled

compound: CS(=O)c1ccc(-c2nc(-c3ccc(F)cc3)c(-c3ccncc3)[nH]2)cc1 (stereo not given)
discrete_label: fulfilled

compound: NC(=O)c1ccc(N(C(N)=O)c2c(F)cccc2F)nc1-c1ccc(F)cc1F
discrete_label: not fulfilled

compound: O=c1cc(N2CCNCC2)oc2c(-c3ccccc3)cccc12
discrete_label: not fulfilled

compound: Nc1nc(Nc2ccc(S(N)(=O)=O)cc2)nn1C(=S)Nc1c(F)cccc1F
discrete_label: fulfilled

compound: O=C1Cc2c([nH]c3ccc([N+](=O)[O-])cc23)-c2ccccc2N1
discrete_label: fulfilled

compound: COc1cc2nccc(Oc3ccc(NC(=S)NC(=O)c4ccccc4C)cc3)c2cc1OC
discrete_label: not fulfilled

compound: Cc1ccc(NC(=O)c2ccc(CN3CCN(C)CC3)cc2)cc1Nc1nc(-c2cccnc2)cs1
discrete_label: not fulfilled

compound: Oc1ccc(-c2nc(-c3ccc(F)cc3)c(-c3ccncc3)[nH]2)cc1
discrete_label: fulfilled

###

# measured_target: JAK1 JH1 catalytic (human) (UniProt P23458)
# Sequence (P23458 whole entry, looked up): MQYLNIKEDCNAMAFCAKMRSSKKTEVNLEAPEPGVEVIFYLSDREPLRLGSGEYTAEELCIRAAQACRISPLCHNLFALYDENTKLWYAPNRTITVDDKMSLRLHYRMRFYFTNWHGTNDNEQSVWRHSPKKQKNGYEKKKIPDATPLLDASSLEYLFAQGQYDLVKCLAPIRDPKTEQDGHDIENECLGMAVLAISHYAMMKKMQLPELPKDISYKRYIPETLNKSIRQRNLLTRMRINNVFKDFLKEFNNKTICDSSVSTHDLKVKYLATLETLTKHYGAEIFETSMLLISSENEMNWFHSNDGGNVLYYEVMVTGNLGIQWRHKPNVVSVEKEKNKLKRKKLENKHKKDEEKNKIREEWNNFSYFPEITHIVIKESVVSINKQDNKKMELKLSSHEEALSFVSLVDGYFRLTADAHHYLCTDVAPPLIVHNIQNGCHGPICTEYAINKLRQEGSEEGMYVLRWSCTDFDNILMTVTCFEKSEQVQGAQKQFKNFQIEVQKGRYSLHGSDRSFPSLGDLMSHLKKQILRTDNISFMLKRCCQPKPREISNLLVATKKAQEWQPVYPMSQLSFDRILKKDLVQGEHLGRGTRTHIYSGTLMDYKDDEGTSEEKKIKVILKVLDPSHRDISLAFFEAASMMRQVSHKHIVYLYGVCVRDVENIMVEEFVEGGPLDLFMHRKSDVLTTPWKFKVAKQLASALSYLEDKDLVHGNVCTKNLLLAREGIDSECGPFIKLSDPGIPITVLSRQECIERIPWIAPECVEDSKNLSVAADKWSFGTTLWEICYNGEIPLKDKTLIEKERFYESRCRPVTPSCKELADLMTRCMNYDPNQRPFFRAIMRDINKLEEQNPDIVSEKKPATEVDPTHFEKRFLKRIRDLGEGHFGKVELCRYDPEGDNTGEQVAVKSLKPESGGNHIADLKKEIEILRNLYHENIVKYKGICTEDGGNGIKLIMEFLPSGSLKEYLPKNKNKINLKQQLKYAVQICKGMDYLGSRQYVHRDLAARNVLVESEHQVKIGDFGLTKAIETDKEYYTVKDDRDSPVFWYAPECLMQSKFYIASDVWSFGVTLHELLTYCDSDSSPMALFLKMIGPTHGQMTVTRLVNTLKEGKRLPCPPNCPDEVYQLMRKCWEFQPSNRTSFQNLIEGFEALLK
# protocol_text: radiometric filter-binding kinase assay, Kinase HotSpot
# test_context: compound 0.5 µM; ATP 10 µM
Below, each of the molecules is paired with its reported residual activity value.

molecule: O=C(Nc1ccc(Cl)cc1)c1ccccc1NCc1ccncc1
residual activity [%]: 91.8

molecule: O=c1cc(N2CCNCC2)oc2c(-c3ccccc3)cccc12
residual activity [%]: 108

molecule: CC(C)[C@H](CO)Nc1nc(Nc2cccc(Cl)c2)c2ncn(C(C)C)c2n1
residual activity [%]: 108

molecule: O=C1Nc2cc(Br)ccc2/C1=C1/Nc2ccccc2/C1=N\O
residual activity [%]: 76.2

molecule: CS(=O)c1ccc(-c2nc(-c3ccc(F)cc3)c(-c3ccncc3)[nH]2)cc1 (stereo unspecified)
residual activity [%]: 105

molecule: CCCNC(=O)Nc1ccc(Oc2ncnc3cc(OC)c(OC)cc23)cc1Cl
residual activity [%]: 99.2

###

# measured_target: CSNK1G1 (human)
# protocol_text: radiometric filter-binding kinase assay, Kinase HotSpot
# test_context: compound 0.5 µM; ATP 10 µM
Below, each of the compounds is paired with its reported residual activity value.
readout_label: residual activity (%)

compound: C#Cc1cccc(Nc2ncnc3cc(OCCOC)c(OCCOC)cc23)c1
readout_label: residual activity
number: 104
--
compound: Nc1n[nH]c2nnc(-c3c(-c4ccccc4)nn4ccccc34)cc12
readout_label: residual activity
number: 109
--
compound: COc1ccc(-c2cnc3c(-c4ccsc4)cnn3c2)cc1
readout_label: residual activity
number: 90.3
--
compound: CC(C)n1cnc2c(Nc3cccc(Cl)c3)nc(NCCO)nc21
readout_label: residual activity
number: 16
--
compound: NC(=O)c1ccc(N(C(N)=O)c2c(F)cccc2F)nc1-c1ccc(F)cc1F
readout_label: residual activity
number: 102
--
compound: Nc1nc(Nc2ccc(S(N)(=O)=O)cc2)nn1C(=S)Nc1c(F)cccc1F
readout_label: residual activity
number: 16.7
--
compound: Clc1ccc(Nc2nnc(Cc3ccncc3)c3ccccc23)cc1
readout_label: residual activity
number: 103
--
compound: CC(C)[C@H](CO)Nc1nc(Nc2cccc(Cl)c2)c2ncn(C(C)C)c2n1
readout_label: residual activity
number: 28
--
compound: CC(C)(C)c1nc2c3ccc(F)cc3c3c(=O)[nH]ccc3c2[nH]1
readout_label: residual activity
number: 96.5
--
compound: CS(=O)c1ccc(-c2nc(-c3ccc(F)cc3)c(-c3ccncc3)[nH]2)cc1 (stereo not given)
readout_label: residual activity
number: 95.7
--
compound: O=C1Nc2ccccc2/C1=C\c1c(Cl)[nH]c2ccccc12
readout_label: residual activity
number: 99.3
--
compound: O=c1cc(-c2cccc3c2Sc2ccccc2S3)oc(N2CCOCC2)c1
readout_label: residual activity
number: 99.3
--
compound: Cc1cc2ncc(-c3ccccc3)nc2cc1C
readout_label: residual activity
number: 85.7
--
compound: Oc1ccc(-c2nc(-c3ccc(F)cc3)c(-c3ccncc3)[nH]2)cc1
readout_label: residual activity
number: 97.3
--
compound: CCCNC(=O)Nc1ccc(Oc2ncnc3cc(OC)c(OC)cc23)cc1Cl
readout_label: residual activity
number: 97.1
